# Measurement Description: MRP1 drug-resistance reversers in H69AR cells – cell-based, doxorubicin co-treatment, pilot screen (AID 601)
# Measurement Conditions: H69AR cells + 2 uM doxorubicin, CellTiter-Glo, 72 h; at 10 µM; stronger effect = higher value
Define the label as class 1 when differential viability (reversal) is strictly less than -10% and as class 0 in all remaining cases.

[
  {
    "Compound": "CCOC(=O)N1CCN(c2cc(=O)n(-c3ccccc3Cl)c(=O)[nH]2)CC1",
    "Qualitative Label": "class 0"
  },
  {
    "Compound": "Cn1c(NC(=O)c2ccccc2NC(=O)C(C)(C)C)nc2ccccc21",
    "Qualitative Label": "class 1"
  },
  {
    "Compound": "CCSc1nnc(N2C(=O)CC(c3ccsc3)C3=C2CC(C)(C)CC3=O)s1 (centres undefined)",
    "Qualitative Label": "class 1"
  },
  {
    "Compound": "COc1cc2c(cc1OC)C(c1ccc(C)o1)CC(=O)N2 (centres undefined)",
    "Qualitative Label": "class 0"
  },
  {
    "Compound": "Oc1ccccc1-c1nnc(COc2ccc(Cl)cc2Cl)o1",
    "Qualitative Label": "class 1"
  },
  {
    "Compound": "Cc1nnc(N(Cc2ccco2)C(=O)c2cccc(C#N)c2)s1",
    "Qualitative Label": "class 0"
  },
  {
    "Compound": "COCCCN1C(=O)C(=O)/C(=C(/O)c2ccc(OCC(C)C)cc2C)C1c1cccnc1 (centres undefined)",
    "Qualitative Label": "class 0"
  },
  {
    "Compound": "COc1ccc(N2CCN(Cc3nc4c(c(=O)n(C)c(=O)n4C)n3Cc3ccccc3C)CC2)cc1",
    "Qualitative Label": "class 0"
  },
  {
    "Compound": "Fc1cccc(Nc2ncnc3c2cnn3-c2ccccc2)c1",
    "Qualitative Label": "class 1"
  },
  {
    "Compound": "COc1cccc(CNC(=O)CCS(=O)(=O)c2cccc3nsnc23)c1",
    "Qualitative Label": "class 0"
  },
  {
    "Compound": "Cc1cccc(-n2ncc3c(N4CCC5(CC4)OCCO5)ncnc32)c1",
    "Qualitative Label": "class 1"
  },
  {
    "Compound": "Cc1ccc(N(C(=O)c2ccncc2)C2C=CS(=O)(=O)C2)cc1 (centres undefined)",
    "Qualitative Label": "class 0"
  },
  {
    "Compound": "CCCCc1cc(=O)oc2cc(OCC(=O)N(CC)CC)c(Cl)cc12",
    "Qualitative Label": "class 1"
  },
  {
    "Compound": "Cn1c(C(=O)Nc2ccc3c(c2)OCO3)cc2c(=O)n(C)c3ccccc3c21",
    "Qualitative Label": "class 0"
  }
]
